Where these numbers come from: paper PMC11124341

Test system: Botrytis cinerea strain FBc05
assay_overview: In vitro antifungal activity, mycelial growth inhibition on PDA medium
Format: cell-based
test_conditions: Botrytis cinerea, FBC05; log-logistic model, 0–50 µg/mL range; read-out: IC50 against Botrytis cinerea (Bc)
A collection of compounds and their measured IC50
The answer should read as a number with its unit following.

Query string: Please report the measured IC50 for CC1(C(=O)Nc2ccc(O)c(Cl)c2Cl)CCCCC1 [Fenhexamid, reference compound]
Result string: 0.1 µg/mL

Query string: Please list IC50 recorded for the compound O=C(N/N=C/c1cccc(-c2ccccc2)c1O)c1ccc(O)cc1
Result string: 13.9 µg/mL

Query string: Identify the reported IC50 for the following entry. CC(C)(C)c1cccc(/C=N/NC(=O)c2ccc(O)cc2)c1O
Result string: 20 µg/mL

Query string: Look up and report measured IC50 for this entry: Cc1cc(/C=N/NC(=O)c2ccc(O)cc2)c(O)c(C(C)(C)C)c1
Result string: 62.5 µg/mL

Query string: Give the reported IC50 for this compound. Cc1ccc(C(C)C)c(O)c1/C=N/NC(=O)c1ccc(O)cc1
Result string: 52.7 µg/mL
